FYI, the data here is from patent EP4707304A1.

Documented pEC50 across a set of binders
Target: T1, VLP-hCLDN6 (human, UniProt P56747 1-220)
T1 construct: also called VLP-CLDN6; AT-003-ag1
T1 sequence: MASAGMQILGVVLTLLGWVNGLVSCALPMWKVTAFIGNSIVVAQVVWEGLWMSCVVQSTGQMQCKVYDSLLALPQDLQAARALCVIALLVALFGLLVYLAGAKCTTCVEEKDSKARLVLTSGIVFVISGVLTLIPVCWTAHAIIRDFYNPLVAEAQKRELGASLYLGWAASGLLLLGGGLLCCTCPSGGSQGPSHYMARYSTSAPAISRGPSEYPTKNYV
Experiment: ELISA on coated VLP-hCLDN6
// pEC50 here means minus log10 of the molar concentration (mol/L)

Known pEC50 results, listed for orientation:
humanized antibody hAb-46 (antibody, V domains shown, also called VH8VL5) VH: EVQLVESGGGLVKPGGSLRLSCAASGFTFNDYTMSWVRQAPGKRLEWVVTISSGGGRTYYPDSVKGRFTISRDNAKNSLYLQMNSLRAEDTAVYYCIRGDYRYDAFAYWGQGTLVTVSS VL: DIQMTQSPSSLSASVGDRVTITCRASENIDSYLAWYQQKPGKSPQLLVYASTLLQDGVPSRFSGSRSGTDFTLTISSLQPEDVATYYCQHYYSIPYTFGSGTKLEIK = 8.18
humanized antibody hAb-27 (antibody, V domains shown, also called VH2VL4 with HC S31M) VH: EVKLVESGGGLVKPGGSLRLSCAASGFTFNMYTMSWVRQTPAKRLEWVVTISSGGGRTYYPDSVKGRFTISRDNAKNTLYLQMSSLRAEDTAVYYCIRGDYRYDGFAYWGQGTLVTVSS VL: DIQMTQSPSSLSASVGDRVTITCRASENIDSYLAWYQQKPGKSPQLLVYASTLLVDGVPSRFSGSRSGTQFSLTISSLQPEDVARYYCQHYYSIPYTFGSGTKLEIK = 9.92
humanized antibody hAb-45 (antibody, V domains shown, also called VH7VL5) VH: EVQLVESGGGLVKPGGSLRLSCAASGFTFNDYTMSWVRQAPGKRLEWVVTISSGGGRTYYPDSVKGRFTISRDNAKNTLYLQMSSLRAEDTAVYYCIRGDYRYDAFAYWGQGTLVTVSS VL: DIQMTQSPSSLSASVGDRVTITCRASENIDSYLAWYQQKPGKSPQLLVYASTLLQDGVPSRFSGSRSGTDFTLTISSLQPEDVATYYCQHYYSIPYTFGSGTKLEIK = 8.32

Would you kindly look at the next entry?
Name the reported pEC50 value associated with the binder humanized antibody hAb-34 (antibody, V domains shown, also called VH2VL4 with HC S31D/G100A) VH: EVKLVESGGGLVKPGGSLRLSCAASGFTFNDYTMSWVRQTPAKRLEWVVTISSGGGRTYYPDSVKGRFTISRDNAKNTLYLQMSSLRAEDTAVYYCIRGDYRYDAFAYWGQGTLVTVSS VL: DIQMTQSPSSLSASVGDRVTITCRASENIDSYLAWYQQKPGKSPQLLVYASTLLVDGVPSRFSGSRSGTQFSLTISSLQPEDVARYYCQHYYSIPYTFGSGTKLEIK 9.05
